The reported measurements were obtained from the supplement of paper PMC10567573.

Quick list: protein stability index per entry.
B1: CPXM2 (parent)
chain: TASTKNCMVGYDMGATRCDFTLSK

- Variants of: B1
- Protocol: protein stability index of a GFP-peptide fusion (GPS, HEK-293T) (PSI 1-6); higher = more stable;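 note: lentivirally expressed fusions sorted by FACS into six bins by GFP to DsRed ratio, PSI derived from sequencing read proportions per bin multiplied by bin number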
- Test context: c terminus: a fixed tail appended
Experimental readout: protein stability index

# Variant identifier, Experimental readout, Observed result
rows = [
    ("F20S", "protein stability index", 2.99),
    ("G10H", "protein stability index", 1.74),
    ("S23A", "protein stability index", 3.47),
    ("R17H", "protein stability index", 2.72),
    ("A2M", "protein stability index", 2.41),
    ("Y11T", "protein stability index", 2.85),
    ("C18G", "protein stability index", 1.87),
    ("C18D", "protein stability index", 2.98),
    ("T16F", "protein stability index", 1.75),
    ("D19V", "protein stability index", 1.78),
    ("Y11E", "protein stability index", 3.49),
    ("V9G", "protein stability index", 3.52),
    ("G10R", "protein stability index", 1.84),
    ("R17I", "protein stability index", 3.2),
    ("Y11F", "protein stability index", 1.38),
    ("T1D", "protein stability index", 3.69),
    ("F20C", "protein stability index", 2.52),
    ("M13I", "protein stability index", 2.11),
    ("A15H", "protein stability index", 2.89),
    ("S23F", "protein stability index", 1.55),
    ("A15K", "protein stability index", 2.84),
    ("S3F", "protein stability index", 1.63),
]
